tested-target: T1, mutant human CD20 #4 (N166D) (human, UniProt P11836 1-297)
T1 construct: Stably expressed on MG87 cells
T1 sequence: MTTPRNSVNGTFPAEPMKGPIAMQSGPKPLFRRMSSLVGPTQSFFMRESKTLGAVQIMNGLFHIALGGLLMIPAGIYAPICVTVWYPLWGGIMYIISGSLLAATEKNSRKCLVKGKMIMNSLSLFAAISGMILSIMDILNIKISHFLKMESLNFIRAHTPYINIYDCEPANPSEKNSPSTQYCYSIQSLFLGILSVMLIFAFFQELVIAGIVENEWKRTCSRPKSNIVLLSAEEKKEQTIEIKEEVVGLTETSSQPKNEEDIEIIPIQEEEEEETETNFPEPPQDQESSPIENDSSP
test-name: FACS, mutant-hCD20 MG87 cells; 100%=best antibody
Quick reference: Percent of Binding to Mutant Human CD20 of the listed items.
outcome-measure: Percent of Binding to Mutant Human CD20 (%)

>>> observed_result("9C11-14 (antibody, V domains shown, Fully human IgG, constant region not specified; also called 9C11-14N) VH: QVQLVESGGDSVKPGGSLRLSCAASGFTFSDSYMTWIRQAPGKGLEWVSFISSSGSTIYYADSVKGRFTISRDNVKKSLYLQMNRLRAEDTAVYYCAREEPGNYVYYGMDVWGQGTTVTVSS VL: EIVVTQSPATLSLSPGERATLSCRTSQTTTSYLAWYRQKPGQAPRLLIYDASNRAAGIPARFSGSGSGTDFTLTINSLEPEDFAVYYCQLRTNWITFGQGTRLEIK")
87
>>> observed_result("9D4-7 (antibody, V domains shown, Fully human IgG, constant region not specified; also called 9D4-7N) VH: EVQLVESGGGLVQPGRSLRLSCAASGFTFYDYAMHWVRQAPGKGLEWVSGISWNSDTIGYADSVKGRFTISRDNAKNSLYLQMNSLRAEDTALYYCTKDGSYGHFYSGLDVWGQGTTVTVSS VL: EIVLTQSPATLSLSPGERATLSCRASQSVSSYLAWYQQKPGQAPRLLIYVASNRATGIPARFSGSGSGTDFTLTISSLEPDDFAVYYCQQRYYWPLTFGGGTKVEIK")
5
>>> observed_result("10F2-13 (antibody, V domains shown, Fully human IgG, constant region not specified; also called 10F2-13N; ab 10F2-13) VH: EEQLVESGGDLVQPGRSLRLSCAASGFTFHDYTMHWVRQAPGKGLEWVSGISWNSGSLGYADSVKGRFTISRDNAKKSLYLQMNSLRAEDTALYYCAKDPSYGSGSYHSYYGMDVWGQGTTVTVSS VL: EIVLTQSPATLSLSPGERATLSCWASQSISRYLVWYQQKCGQAPRLLIYEASKRATGIPVRFSGSGSGTDFTLTISSLESEDFAVYYCQQRFNWPLTFGGGTKVEIK")
60

Origin of values: patent US20090035322A1
